Assay: refractive index (Na D-line) (dimensionless); xn = mol fraction of the nth substance listed
Settings: 288.15 K; 101.32 kPa; Liquid; Standard Abbe refractometry; x1 = 0.7999

| compound | refractive index |
| --- | --- |
| COCCOCCOCCOC [2,5,8,11-tetraoxadodecane] + CCO | 1.4208 |
| COCCOCCOCCOCCOC [2,5,8,11,14-pentaoxapentadecane] + CCO | 1.4304 |
| COCCOCCOC [2,5,8-trioxanonane] + CCO | 1.406 |
| COCCOC [1,2-dimethoxyethane] + CCO | 1.3802 |

* * *

Assay: xn = mol fraction of the nth substance listed
Conditions: 288.15 K; 101.32 kPa; Liquid; x1 = 0.3
± gives the expanded uncertainty stated by the source.
endpointLabel: mass density

| molecule | recordedResult |
| --- | --- |
| COCCOC [1,2-dimethoxyethane] + CCO | 830.1 ± 0.4 kg/m3 |
| COCCOCCOCCOCCOC [2,5,8,11,14-pentaoxapentadecane] + CCO | 936.6 ± 0.3 kg/m3 |
| COCCOCCOCCOC [2,5,8,11-tetraoxadodecane] + CCO | 909.2 ± 0.3 kg/m3 |
| COCCOCCOC [2,5,8-trioxanonane] + CCO | 875.7 ± 0.3 kg/m3 |

* * *

Recorded refractive index, one value per entry.
Test: refractive index (Na D-line) (dimensionless); xn = mol fraction of the nth substance listed
Conditions: 298.15 K; 101.32 kPa; Liquid; Standard Abbe refractometry; x1 = 0.0165
Numbers after ± are expanded uncertainties.

| compound | refractive index |
| --- | --- |
| COCCOCCOC [2,5,8-trioxanonane] + CCO | 1.361 ± 0.0005 |
| COCCOCCOCCOC [2,5,8,11-tetraoxadodecane] + CCO | 1.3624 ± 0.0005 |
| COCCOCCOCCOCCOC [2,5,8,11,14-pentaoxapentadecane] + CCO | 1.3638 ± 0.0003 |
| COCCOC [1,2-dimethoxyethane] + CCO | 1.3596 ± 0.0005 |

* * *

Recorded refractive index, one value per entry.
Assay: refractive index (Na D-line) (dimensionless); xn = mol fraction of the nth substance listed
Conditions: 308.15 K; 101.32 kPa; Liquid; Standard Abbe refractometry; x1 = 0.1

| molecule | refractive index |
| --- | --- |
| COCCOC [1,2-dimethoxyethane] + CCO | 1.3582 |
| COCCOCCOC [2,5,8-trioxanonane] + CCO | 1.3654 |
| COCCOCCOCCOCCOC [2,5,8,11,14-pentaoxapentadecane] + CCO | 1.3779 |
| COCCOCCOCCOC [2,5,8,11-tetraoxadodecane] + CCO | 1.372 |

* * *

Test: refractive index (Na D-line) (dimensionless); xn = mol fraction of the nth substance listed
Conditions: 298.15 K; 101.32 kPa; Liquid; Standard Abbe refractometry; x1 = 0.25

| compound | refractive index |
| --- | --- |
| COCCOCCOCCOC [2,5,8,11-tetraoxadodecane] + CCO | 1.3919 |
| COCCOCCOC [2,5,8-trioxanonane] + CCO | 1.381 |
| COCCOC [1,2-dimethoxyethane] + CCO | 1.3664 |
| COCCOCCOCCOCCOC [2,5,8,11,14-pentaoxapentadecane] + CCO | 1.4011 |

* * *

Experiment: xn = mol fraction of the nth substance listed
Details: 318.15 K; 101.32 kPa; Liquid; x1 = 0.15
endpointLabel: mass density (kg/m3)

| compound | endpointLabel | recordedResult |
| --- | --- | --- |
| COCCOCCOCCOCCOC [2,5,8,11,14-pentaoxapentadecane] + CCO | mass density | 860.7 |
| COCCOCCOCCOC [2,5,8,11-tetraoxadodecane] + CCO | mass density | 839 |
| COCCOC [1,2-dimethoxyethane] + CCO | mass density | 786.3 |
| COCCOCCOC [2,5,8-trioxanonane] + CCO | mass density | 815.1 |

* * *

Assay: refractive index (Na D-line) (dimensionless); xn = mol fraction of the nth substance listed
Conditions: 308.15 K; 101.32 kPa; Liquid; Standard Abbe refractometry; x1 = 0.15

| compound | refractive index |
| --- | --- |
| COCCOCCOCCOC [2,5,8,11-tetraoxadodecane] + CCO | 1.3782 |
| COCCOCCOC [2,5,8-trioxanonane] + CCO | 1.3697 |
| COCCOCCOCCOCCOC [2,5,8,11,14-pentaoxapentadecane] + CCO | 1.3857 |
| COCCOC [1,2-dimethoxyethane] + CCO | 1.3596 |

* * *

Recorded refractive index, one value per entry.
Test: refractive index (Na D-line) (dimensionless); xn = mol fraction of the nth substance listed
Conditions: 288.15 K; 101.32 kPa; Liquid; Standard Abbe refractometry; x1 = 0.15
± gives the expanded uncertainty stated by the source.
endpointLabel: refractive index

| compound | endpointLabel | recordedResult |
| --- | --- | --- |
| COCCOCCOCCOC [2,5,8,11-tetraoxadodecane] + CCO | refractive index | 1.3862 ± 0.0005 |
| COCCOCCOC [2,5,8-trioxanonane] + CCO | refractive index | 1.378 ± 0.0005 |
| COCCOC [1,2-dimethoxyethane] + CCO | refractive index | 1.3681 ± 0.0005 |
| COCCOCCOCCOCCOC [2,5,8,11,14-pentaoxapentadecane] + CCO | refractive index | 1.3936 ± 0.0003 |

* * *

Test: refractive index (Na D-line) (dimensionless); xn = mol fraction of the nth substance listed
Conditions: 298.15 K; 101.32 kPa; Liquid; Standard Abbe refractometry; x1 = 0.0045
Recorded refractive index, one value per entry.

| compound | refractive index |
| --- | --- |
| COCCOCCOC [2,5,8-trioxanonane] + CCO | 1.3596 |
| COCCOCCOCCOC [2,5,8,11-tetraoxadodecane] + CCO | 1.36 |
| COCCOC [1,2-dimethoxyethane] + CCO | 1.3592 |
| COCCOCCOCCOCCOC [2,5,8,11,14-pentaoxapentadecane] + CCO | 1.3604 |

* * *

Recorded refractive index, one value per entry.
Assay: refractive index (Na D-line) (dimensionless); xn = mol fraction of the nth substance listed
Conditions: 318.15 K; 101.32 kPa; Liquid; Standard Abbe refractometry; x1 = 0.15
± gives the expanded uncertainty stated by the source.

| compound | refractive index |
| --- | --- |
| COCCOCCOCCOC [2,5,8,11-tetraoxadodecane] + CCO | 1.3741 ± 0.0005 |
| COCCOCCOCCOCCOC [2,5,8,11,14-pentaoxapentadecane] + CCO | 1.3818 ± 0.0003 |
| COCCOCCOC [2,5,8-trioxanonane] + CCO | 1.3655 ± 0.0005 |
| COCCOC [1,2-dimethoxyethane] + CCO | 1.3552 ± 0.0005 |

* * *

Experiment: refractive index (Na D-line) (dimensionless); xn = mol fraction of the nth substance listed
Settings: 288.15 K; 101.32 kPa; Liquid; Standard Abbe refractometry; x1 = 0.0045

| compound | refractive index |
| --- | --- |
| COCCOCCOCCOCCOC [2,5,8,11,14-pentaoxapentadecane] + CCO | 1.3644 |
| COCCOCCOC [2,5,8-trioxanonane] + CCO | 1.3636 |
| COCCOCCOCCOC [2,5,8,11-tetraoxadodecane] + CCO | 1.3641 |
| COCCOC [1,2-dimethoxyethane] + CCO | 1.3633 |

* * *

Recorded mass density, one value per entry.
Test: xn = mol fraction of the nth substance listed
Conditions: 308.15 K; 101.32 kPa; Liquid; x1 = 0.25

| compound | mass density, kg/m3 |
| --- | --- |
| COCCOC [1,2-dimethoxyethane] + CCO | 806.1 |
| COCCOCCOC [2,5,8-trioxanonane] + CCO | 847.3 |
| COCCOCCOCCOCCOC [2,5,8,11,14-pentaoxapentadecane] + CCO | 905 |
| COCCOCCOCCOC [2,5,8,11-tetraoxadodecane] + CCO | 878.6 |

* * *

Test: xn = mol fraction of the nth substance listed
Details: 298.15 K; 101.32 kPa; Liquid; x1 = 0.2

| compound | resultUnits | mass density |
| --- | --- | --- |
| COCCOCCOC [2,5,8-trioxanonane] + CCO | kg/m3 | 845.8 |
| COCCOCCOCCOCCOC [2,5,8,11,14-pentaoxapentadecane] + CCO | kg/m3 | 898.1 |
| COCCOC [1,2-dimethoxyethane] + CCO | kg/m3 | 810.6 |
| COCCOCCOCCOC [2,5,8,11-tetraoxadodecane] + CCO | kg/m3 | 873.6 |

* * *

Assay: refractive index (Na D-line) (dimensionless); xn = mol fraction of the nth substance listed
Details: 308.15 K; 101.32 kPa; Liquid; Standard Abbe refractometry; x1 = 0.0165
endpointLabel: refractive index

| compound | endpointLabel | recordedResult |
| --- | --- | --- |
| COCCOCCOCCOC [2,5,8,11-tetraoxadodecane] + CCO | refractive index | 1.3583 |
| COCCOCCOCCOCCOC [2,5,8,11,14-pentaoxapentadecane] + CCO | refractive index | 1.3598 |
| COCCOCCOC [2,5,8-trioxanonane] + CCO | refractive index | 1.3569 |
| COCCOC [1,2-dimethoxyethane] + CCO | refractive index | 1.3555 |
